binding signal: recorded values
Biological target: T1, RBFOX1 RRM RbFoxmut (Fox-RRM*) (Homo sapiens, UniProt Q9NWB1 109-208, R118D;E147R;N151S;E152T)
T1 sequence: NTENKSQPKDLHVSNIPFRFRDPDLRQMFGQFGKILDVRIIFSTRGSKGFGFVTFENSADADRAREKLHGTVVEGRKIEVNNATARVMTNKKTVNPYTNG
Assay: EMSA; HiTS-Eq, 1 nM pool, 10 min; buffer printed only for the single-RNA assays: 10 mM Tris pH 7.5, 150 mM NaCl, 3.4 mM EDTA, 0.001% NP-40, 30 C
Conditions: tags: His6 N-terminal (pET28a); label: 5' 32P
In all, about 16,000 sequences were measured (“ka relative to ugcaugu”: median about 0.096, highest 2% from about 0.35 on). This is one part of a sample in which the highest values are shown more often than they occur.

UUGGUUG (DNA:RNA) RNA: GGGAGACCGGAAUUCAGAUUGUCCUUGGUUGUUAAAUCCCGUCGUAGCCACCA DNA 1: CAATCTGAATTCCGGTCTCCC DNA 2: TGGTGGCTACGACGGGATT | 0.65 KA relative to UGCAUGU

Kindly consider the entry below.
Query: I'd like to know its binding signal. The binder in question is CCAAUUG (DNA:RNA) RNA: GGGAGACCGGAAUUCAGAUUGUCCCCAAUUGUUAAAUCCCGUCGUAGCCACCA DNA 1: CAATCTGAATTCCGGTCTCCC DNA 2: TGGTGGCTACGACGGGATT
Reply: 0.0976 KA relative to UGCAUGU
